Where do these numbers come from? They come from patent US20240092867A1.

biological target: T1, fibroblast growth factor (FGF)-2 (human, UniProt P09038 143-288); assay: ELISA, peptide coated, GF 1 µg/mL
T1 construct: mature; Purchased in mature form
T1 sequence (P09038 143-288): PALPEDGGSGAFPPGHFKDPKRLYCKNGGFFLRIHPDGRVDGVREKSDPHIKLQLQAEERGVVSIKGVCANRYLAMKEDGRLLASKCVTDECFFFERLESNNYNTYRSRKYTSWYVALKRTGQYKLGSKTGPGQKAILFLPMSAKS
QUANTITY KIND: binding result

For orientation, consider the following solved cases.
> print(dat)
                                     binder  assay.value
1  TLFLAHGRLVYMFNVGHKKLKIR (Chemically synthesized (Genscript)) [laminin α4 1521-1543 peptide (LG4)]        binds
2  RLVFALGTDGKKLRIKSKEKCNDGK (Chemically synthesized (Genscript)) [laminin α3 3043-3067 peptide (LG4)]        binds
3  PPFLMLLKGSTRFNKTKTFR (Chemically synthesized (Genscript)) [laminin α3 2932-2951 peptide (Linker)]        binds
4  PLFLLHKKGKNLSKPKASQNKKGGKSK (Chemically synthesized (Genscript)) [laminin α4 1408-1434 peptide (Linker)]        binds
5  RQRSRPGRWHKVSVRWEKNR (Chemically synthesized (Genscript)) [laminin α5 3417-3436 peptide (LG4)]        binds

I am curious: what binding result value has been reported for TLPDVGLELEVR (Chemically synthesized (Genscript)) [laminin α5 3539-3550 peptide (LG5)] ?
binds
